molecular target: α2 GlyR (Homo sapiens); construct: expressed in transfected cells; host or cells: CHO cells; test: Whole-cell patch-clamp of glycine-induced currents, α2 GlyR expressed in CHO cells; type: cell-based; details: −80 mV; glycine 30 μM; ramp protocol; mean ± SEM; read-out: IC50 of NFA
Observable: pIC50
Lab note: report pIC50 as minus log10 of the concentration in molar units, number only.

Enquiry: Entry `O=C(O)c1cccnc1Nc1cccc(C(F)(F)F)c1` needs its pIC50 filled in; supply it.
Return: 3.78

###

molecular target: α2β GlyR (Homo sapiens, UniProt P23416+P48167); construct: expressed in transfected cells; host or cells: CHO cells; experiment: Whole-cell patch-clamp of glycine-induced currents, heteromeric α2β GlyR expressed in CHO cells; format: cell-based; conditions: −80 mV; glycine 30 μM; representative; read-out: NFA IC50 (representative IC50 curve)
Sequence (P23416 28-452 isoform P23416-2 limits assumed): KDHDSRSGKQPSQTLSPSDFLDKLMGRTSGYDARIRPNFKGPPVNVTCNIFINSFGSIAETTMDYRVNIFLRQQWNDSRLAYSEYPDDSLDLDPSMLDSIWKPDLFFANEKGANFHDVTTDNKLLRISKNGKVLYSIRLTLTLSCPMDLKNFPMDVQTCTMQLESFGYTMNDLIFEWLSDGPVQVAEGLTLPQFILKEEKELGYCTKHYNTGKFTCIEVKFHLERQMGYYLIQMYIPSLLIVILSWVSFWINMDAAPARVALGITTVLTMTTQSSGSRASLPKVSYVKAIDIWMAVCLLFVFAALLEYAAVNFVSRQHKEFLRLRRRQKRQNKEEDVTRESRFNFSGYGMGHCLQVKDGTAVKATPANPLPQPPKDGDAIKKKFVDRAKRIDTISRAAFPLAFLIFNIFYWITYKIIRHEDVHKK
Sequence (P48167 23-497): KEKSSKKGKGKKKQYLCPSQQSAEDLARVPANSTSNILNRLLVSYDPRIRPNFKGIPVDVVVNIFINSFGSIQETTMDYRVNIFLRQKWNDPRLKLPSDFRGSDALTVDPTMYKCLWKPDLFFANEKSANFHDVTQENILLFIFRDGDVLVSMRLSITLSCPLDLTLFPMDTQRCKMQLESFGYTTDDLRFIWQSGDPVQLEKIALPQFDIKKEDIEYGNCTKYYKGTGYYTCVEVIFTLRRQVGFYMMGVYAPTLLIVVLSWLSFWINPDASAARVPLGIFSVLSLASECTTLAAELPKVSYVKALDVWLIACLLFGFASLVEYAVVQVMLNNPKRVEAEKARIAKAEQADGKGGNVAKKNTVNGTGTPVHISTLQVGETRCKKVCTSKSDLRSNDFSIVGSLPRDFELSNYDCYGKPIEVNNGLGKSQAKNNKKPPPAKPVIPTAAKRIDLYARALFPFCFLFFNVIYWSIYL
Observable: pIC50
Please express pIC50 as -log10 of the molar concentration.

Enquiry: Lab note: α2β GlyR (Homo sapiens, UniProt P23416+P48167) assay, enter pIC50 for O=C(O)c1cccnc1Nc1cccc(C(F)(F)F)c1 [NFA, Niflumic acid] here
Return: 4.08

###

molecular target: α2β GlyR (Homo sapiens, UniProt P23416+P48167); construct: expressed in transfected cells; host or cells: CHO cells; assay: Whole-cell patch-clamp of glycine-induced currents, heteromeric α2β GlyR expressed in CHO cells; format: cell-based; details: +80 mV; glycine 30 μM; mean ± SEM; read-out: IC50 of NFA
Observable: IC50 (µM)
Respond with the bare value in µM.

Enquiry: Input O=C(O)c1cccnc1Nc1cccc(C(F)(F)F)c1 [NFA, Niflumic acid] , output reported IC50.
Return: 20

###

biological target: G254A-α1 GlyR (Homo sapiens, UniProt P23415, G282A); construct: expressed in transfected cells; host or cells: CHO cells; test: Whole-cell patch-clamp of glycine-induced currents, G254A-α1 GlyR mutant expressed in CHO cells; assay type: cell-based; conditions: +80 mV; glycine 100 μM; representative; read-out: NFA IC50 (representative IC50 curve)
Sequence (P23415 29-449 isoform P23415-2 G282A limits assumed): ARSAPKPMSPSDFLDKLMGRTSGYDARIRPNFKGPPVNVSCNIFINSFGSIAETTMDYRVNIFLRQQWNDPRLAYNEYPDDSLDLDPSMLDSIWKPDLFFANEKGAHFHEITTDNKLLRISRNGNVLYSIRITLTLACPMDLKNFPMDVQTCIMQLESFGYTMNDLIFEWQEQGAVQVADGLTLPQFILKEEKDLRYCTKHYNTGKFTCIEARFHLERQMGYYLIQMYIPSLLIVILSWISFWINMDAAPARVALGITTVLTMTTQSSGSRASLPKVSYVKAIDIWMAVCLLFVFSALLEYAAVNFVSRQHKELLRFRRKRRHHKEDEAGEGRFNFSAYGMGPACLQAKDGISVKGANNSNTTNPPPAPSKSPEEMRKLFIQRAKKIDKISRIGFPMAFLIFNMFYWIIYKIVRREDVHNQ
Observable: pIC50
# pIC50 is unitless: minus log10 of the molar concentration; print number only

Enquiry: Consider the molecule `O=C(O)c1cccnc1Nc1cccc(C(F)(F)F)c1` . State its measured pIC50.
Return: 4.24

###

Biological target: α2 GlyR (Homo sapiens, UniProt P23416)
Construct: expressed in transfected cells; host or cells: CHO cells
Test: Whole-cell patch-clamp of glycine-induced currents, α2 GlyR expressed in CHO cells
Assay type: cell-based
Settings: +80 mV; glycine 100 μM; representative; read-out: NFA IC50 (representative IC50 curve)
Protocol: The experiments were carried out on cultured Chinese hamster ovary (CHO) cells obtained from the American Type Tissue Culture Collection (ATCC, Molsheim, France) that were maintained in culture conditions as previously described (Mukhtarov et al., [2013]; Maleeva et al., [2015]). One day before transfection, cells were plated on the cover slips (12 mm in diameter) and placed inside 35-mm cell culture dishes with 2 ml of medium. […]
Observable: IC50
Reply with the number and its unit after it.

Enquiry: With α2 GlyR (Homo sapiens, UniProt P23416) as the test system, provide measured IC50 for this compound: O=C(O)c1cccnc1Nc1cccc(C(F)(F)F)c1 [NFA, Niflumic acid]
Return: 7 µM
